# targetOrSystem: bacterial NAD synthetase enzyme (Bacillus subtilis)
# Sequence (P08164 2-272 limits assumed): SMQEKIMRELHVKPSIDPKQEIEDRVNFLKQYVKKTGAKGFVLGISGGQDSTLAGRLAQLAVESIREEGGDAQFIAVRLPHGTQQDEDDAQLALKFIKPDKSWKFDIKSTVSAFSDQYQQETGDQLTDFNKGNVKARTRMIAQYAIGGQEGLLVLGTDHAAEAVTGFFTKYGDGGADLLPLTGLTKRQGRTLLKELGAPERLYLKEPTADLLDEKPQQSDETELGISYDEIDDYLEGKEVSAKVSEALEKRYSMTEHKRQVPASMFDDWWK
# assayProcedure: biochemical
# Format: biochemical
# assaySetup: compound at 0.1 mM (Table 314)
Can you tell me % Inhibition for the items I'm about to list?
Please reply with the bare figure in % and do not write the unit itself.

Incoming: Return reported % Inhibition; argument: COc1ccc2[nH]c(CCCC[n+]3ccccc3)cc2c1 [Compound 373]
Outgoing: 7.72

Incoming: Fill in: % Inhibition of O=[N+]([O-])c1ccc2[nH]c(CCC[n+]3ccc4ccccc4c3)cc2c1 [Compound 546] is ___
Outgoing: 4.72

Incoming: Query (compound): COC(=O)c1cc2ccccc2n1CCCCCCOC(=O)c1ccc[n+](C)c1 [Compound 971] ; field requested: % Inhibition
Outgoing: 100.00

Incoming: Any idea what its % Inhibition is? The compound is O=C(c1ccccc1)c1ccc2[nH]c(CCCCCCCOC(=O)C(c3ccccc3)c3ccccc3)cc2c1 [Compound 676]
Outgoing: 1.46

Incoming: Look at this compound and give its reported % Inhibition. CN(C)c1ccc(CC(=O)OCCCCCCn2ccc3cc([N+](=O)[O-])ccc32)cc1 [Compound 850]
Outgoing: 87.46

Incoming: Query (compound): Fc1ccc2[nH]c(CCCCCCC[n+]3ccccc3)cc2c1 [Compound 346] ; field requested: % Inhibition
Outgoing: 42.57

Incoming: Need % Inhibition of CC(C)c1ccc2[nH]c(CCCC[n+]3ccccc3)cc2c1 [Compound 319] , thanks.
Outgoing: 16.99

Incoming: Can you look up the measured % Inhibition of O=C(OCCCCCn1ccc2cc([N+](=O)[O-])ccc21)c1cnc2ccccc2c1 [Compound 831] for me?
Outgoing: 26.21

Incoming: Param item = COc1ccc2[nH]c(CCCCCCC[n+]3ccccc3)cc2c1 [Compound 376] ; retrieve measured % Inhibition.
Outgoing: 37.32
